assay: Plasma clearance pharmacokinetics in rats; assay type: in vivo, Sprague-Dawley rats; details: Sprague-Dawley, plasma, intravenous, 200 ug/kg; rat, free drug, 200 μg/kg; read-out: T½ Term. (converted)
Square brackets hold non-standard residues; d marks the D form. Peptide text beside a SMILES is read from it. Dolaproine = CO[C@@H]([C@@H]1CCCN1)[C@@H](C)C(=O)O; Dil = CC[C@H](C)[C@H](NC)[C@@H](CC(=O)O)OC; NMeV = CN[C@H](C(=O)O)C(C)C
endpointName: half-life (h)
Give a bare numeral; the unit h is implied.

Fill blank: measured half-life of the compound CC[C@H](C)[C@@H]([C@@H](CC(=O)N1CCC[C@H]1[C@H](OC)[C@@H](C)C(=O)N[C@@H](Cc1ccccc1)C(=O)O)OC)N(C)C(=O)[C@@H](NC(=O)[C@@H](NC)C(C)C)C(C)C [Compound 2] (H-[NMeV]V[Dil][Dolaproine]F-OH) is ____.
5.38

====

Assay: Plasma clearance pharmacokinetics in rats
Format: in vivo, Sprague-Dawley rats
Conditions: Sprague-Dawley, plasma, intravenous, 200 ug/kg; rat, free drug
Experimental: Pharmacokinetic plasma clearance and stability of ADC were investigated in rats and cynomolgus monkeys. Plasma concentration was measured over time. […] AUC inf is the area under the plasma concentration-time curve from time of dosing to infinity and is a measure of the total exposure to the measured entity (drug, ADC). CL is defined as the volume of plasma cleared of the measured entity in unit time and is expressed by normalizing to body weight. […]
Square brackets hold non-standard residues; d marks the D form. Peptide text beside a SMILES is read from it. Dolaproine = CO[C@@H]([C@@H]1CCCN1)[C@@H](C)C(=O)O; Dil = CC[C@H](C)[C@H](NC)[C@@H](CC(=O)O)OC; NMeV = CN[C@H](C(=O)O)C(C)C
endpointName: Cmax
The answer consists of two parts: a number and, after it, its unit.

Fill blank: measured Cmax of the compound CC[C@H](C)[C@@H]([C@@H](CC(=O)N1CCC[C@H]1[C@H](OC)[C@@H](C)C(=O)N[C@@H](Cc1ccccc1)C(=O)O)OC)N(C)C(=O)[C@@H](NC(=O)[C@@H](NC)C(C)C)C(C)C [Compound 2] (H-[NMeV]V[Dil][Dolaproine]F-OH) is ____.
280 ng/mL
